# Test system: MCF-10A
# Protocol text: Cytotoxicity against human MCF-10A cells assessed as reduction in cell viability incubated for 72 hrs by CyQuant assay
# Format: cell-based
pEC50: −log10 of the molar value.

Compound: O=C([C@H]1CCN1S(=O)(=O)c1c(F)c(F)c(F)c(F)c1F)N(Cc1ccc(C2CCCCC2)cc1)c1ccc2c(=O)[nH]ccc2c1
pEC50: 5.28
//
Compound: NC(=O)c1ccc(N(Cc2ccc(C3CCCCC3)cn2)C(=O)[C@H]2CCN2S(=O)(=O)c2c(F)c(F)c(F)c(F)c2F)cc1O
pEC50: 5.14
//
Compound: O=C([C@H]1CCN1S(=O)(=O)c1c(F)c(F)c(F)c(F)c1F)N(Cc1ccc(C2CCCCC2)cn1)c1cc2[nH]ncc2cc1F
pEC50: 5.31
//
Compound: O=C([C@H]1CCN1S(=O)(=O)c1c(F)c(F)c(F)c(F)c1F)N(Cc1ccc(C2CCCCC2)cc1)c1ccc2c(=O)[nH]ncc2c1
pEC50: 5.34
//
Compound: Cn1cnc2cc(N(Cc3ccc(C4CCCCC4)cn3)C(=O)[C@H]3CCN3S(=O)(=O)c3c(F)c(F)c(F)c(F)c3F)ccc2c1=O
pEC50: 5.33

###

# Tested on: MCF-10A
# Protocol text: Cytotoxicity against human MCF-10A cells assessed as reduction in cell viability incubated for 72 hrs by CyQuant assay
# Format: cell-based
Reported endpoint: EC50

Compound: O=C([C@H]1CCN1S(=O)(=O)c1c(F)c(F)c(F)c(F)c1F)N(Cc1cnc(C2CCCCC2)cn1)c1cc2[nH]ncc2cc1F
Result: 3.2 µM
//
Compound: O=C(NO)c1ccc(N(Cc2ccc(C3CCOCC3)cc2)C(=O)[C@H]2CCN2S(=O)(=O)c2c(F)c(F)c(F)c(F)c2F)cc1
Result: 4.3 µM
//
Compound: CNC(=O)c1ccc(N(Cc2ccc(C3CCCCC3)cn2)C(=O)[C@H]2CCN2S(=O)(=O)c2c(F)c(F)c(F)c(F)c2F)cc1O
Result: 4.6 µM
//
Compound: O=C(NO)c1ccc(N(Cc2ccc(C3CCCCC3)cc2)C(=O)[C@H]2CCN2S(=O)(=O)c2c(F)c(F)c(F)c(F)c2F)cc1
Result: 7.9 µM
//
Compound: O=C([C@H]1CCN1S(=O)(=O)c1c(F)c(F)c(F)c(F)c1F)N(Cc1ccc(C2CCCCC2)cc1)c1cc2[nH]ncc2cc1F
Result: 8.1 µM
//
Compound: O=C([C@H]1CCN1S(=O)(=O)c1c(F)c(F)c(F)c(F)c1F)N(Cc1ccc(C2CCCCC2)cn1)c1ccc2c(=O)[nH]cnc2c1
Result: 4 µM
//
Compound: Cn1ccc2cc(N(Cc3ccc(C4CCCCC4)cn3)C(=O)[C@H]3CCN3S(=O)(=O)c3c(F)c(F)c(F)c(F)c3F)ccc2c1=O
Result: 4.4 µM

###

# Tested system: UniProt P42225
# Sequence (P42225 whole entry): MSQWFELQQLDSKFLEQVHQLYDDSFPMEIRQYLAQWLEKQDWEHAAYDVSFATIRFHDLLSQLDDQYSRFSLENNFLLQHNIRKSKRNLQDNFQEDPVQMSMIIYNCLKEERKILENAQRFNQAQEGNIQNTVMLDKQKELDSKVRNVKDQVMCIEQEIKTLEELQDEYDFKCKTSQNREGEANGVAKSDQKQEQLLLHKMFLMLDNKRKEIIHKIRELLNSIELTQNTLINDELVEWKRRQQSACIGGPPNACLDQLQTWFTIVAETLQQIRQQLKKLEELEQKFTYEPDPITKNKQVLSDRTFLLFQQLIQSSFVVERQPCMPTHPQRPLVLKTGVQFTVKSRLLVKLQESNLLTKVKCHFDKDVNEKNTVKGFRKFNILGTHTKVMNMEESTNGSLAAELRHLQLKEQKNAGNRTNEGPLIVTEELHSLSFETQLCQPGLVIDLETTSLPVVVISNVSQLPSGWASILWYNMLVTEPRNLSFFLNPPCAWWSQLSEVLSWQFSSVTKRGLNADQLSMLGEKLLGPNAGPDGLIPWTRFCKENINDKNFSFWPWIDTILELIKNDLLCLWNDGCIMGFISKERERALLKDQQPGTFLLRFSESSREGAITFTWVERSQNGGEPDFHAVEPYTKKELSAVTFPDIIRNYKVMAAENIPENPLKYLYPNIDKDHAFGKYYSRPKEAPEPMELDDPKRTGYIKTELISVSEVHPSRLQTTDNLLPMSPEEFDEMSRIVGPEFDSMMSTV
# Protocol text: Inhibition of oligonucleotide [32P]-labelled 5'-AGCITCATTTCCCGTAAATCCCTA probe binding to STAT1 homodimer in mouse NIH3T3 nuclear extract at 10 uM preincubated for 30 mins followed by hSIE probe addition by EMSA analysis
Activity calls are given as the source filed them. The rule behind the calls is not given here.

Compound: CNC(=O)c1ccc(N(Cc2ccc(C3CCCCC3)cn2)C(=O)[C@H]2CCN2S(=O)(=O)c2c(F)c(F)c(F)c(F)c2F)cc1O
inhibition: Active

Compound: O=C(NO)c1ccc(N(Cc2ccc(C3CCCCC3)cc2)C(=O)[C@H]2CCN2S(=O)(=O)c2c(F)c(F)c(F)c(F)c2F)cc1O
inhibition: Active

Compound: COC(=O)c1ccc(N(Cc2ccc(C3CCCCC3)cc2)C(=O)[C@H]2CCN2S(=O)(=O)c2c(F)c(F)c(F)c(F)c2F)cc1O
inhibition: Active

The measured values listed here are drawn from ChEMBL document CHEMBL4706639.
